B1: PPP2R2B (parent)
chain: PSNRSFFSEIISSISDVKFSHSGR

Variants of: B1
Experiment: protein stability index of a GFP-peptide fusion (GPS, HEK-293T) (PSI 1-6); higher = more stable;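 also: lentivirally expressed fusions sorted by FACS into six bins by GFP to DsRed ratio, PSI derived from sequencing read proportions per bin multiplied by bin number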
Settings: c terminus: a fixed tail appended
The entries below are paired with their reported protein stability index.
Form field (numeric): enter value without unit.

>  <changes>
E9P

>  <reported-measurement>
2.45

$$$$

Which protein stability index reading was recorded for the variant S8D ?
2.32

Which protein stability index reading was recorded for the variant S20I ?
2.22

Which protein stability index reading was recorded for the variant S8C ?
1.7

Which protein stability index reading was recorded for the variant S8E ?
2.57

Which protein stability index reading was recorded for the variant S8V ?
1.52

Which protein stability index reading was recorded for the variant H21D ?
2.54

Which protein stability index reading was recorded for the variant S12V ?
1.82

Which protein stability index reading was recorded for the variant G23I ?
1.88

Which protein stability index reading was recorded for the variant K18H ?
2.04

Which protein stability index reading was recorded for the variant K18I ?
2.33
